# System: Vero E6
# method.summary: cell viability relative to DMSO; higher = less toxic
# applied.conditions: 72 h; 10000 nM
assay.metric: cell viability
Number first, unit second: that is the form wanted.

Check out these entries, answers already filled in.
compound=COc1cc(C(=O)NCCCCCC(=O)O)cc(OC)c1OC assay_metric="cell viability" recorded_value=94.6%
compound=CC(C)CCNc1ncccc1C(=O)N1CCN(Cc2ccccc2)CC1 assay_metric="cell viability" recorded_value=104%

Returns the measured cell viability for the input compound. Input: COc1cc(N2CCC(N3CCN(C)CC3)CC2)ccc1Nc1ncc(Cl)c(Nc2ccccc2P(C)(C)=O)n1
78.5%

Consider the compound shown here: CC(C)S(=O)(=O)NC[C@H](C)c1ccc(-c2ccc(CCNS(C)(=O)=O)cc2)cc1 What is its recorded cell viability?
95.6%

What value of cell viability has been recorded for this entry: COCc1nc2c([nH]1)c(=O)n(C)c(=O)n2CC(C)C
99.2%

I'd like to know its cell viability. The compound in question is CN1C(=O)COc2c(C(=O)NC3CN4CCC3CC4)cc(Cl)cc21 (configuration not stated)
105%

What value of cell viability has been reported for the following compound? COc1cc(Oc2ccnc3cc(OC)c(OC)cc23)ccc1NC(=O)NC(C)c1nccs1 (configuration not stated)
95.6%

====

# System: A549-ACE2
# method.summary: drug-induced phospholipidosis relative to tamoxifen; higher = more phospholipidosis
# applied.conditions: 6.66667 µM; 48 h
assay.metric: drug-induced phospholipidosis (%)
The response must be a number in % with no trailing unit.

Below: 3 molecules and their reported drug-induced phospholipidosis.
molecule="CSc1ccc2c(c1)[C@H](N1CCN(C)CC1)Cc1ccccc1S2 (racemic) [metitepine]" assay_metric="drug-induced phospholipidosis" recorded_value=92.1
molecule=CCOc1cn(-c2ccc(F)cc2C)nc1C(=O)Nc1ccc(Oc2ccnc3cc(OC)c(OC)cc23)c(F)c1 assay_metric="drug-induced phospholipidosis" recorded_value=39.5
molecule=CC(=O)O[C@@H]1C[C@H]2C(C)(C)C(=O)C=C[C@]2(C)[C@H]2CC[C@@]3(C)[C@H](c4ccoc4)OC(=O)[C@H]4O[C@]43[C@@]21C assay_metric="drug-induced phospholipidosis" recorded_value=18

Look up drug-induced phospholipidosis: COCC(=O)O[C@]1(CCN(C)CCCc2nc3ccccc3[nH]2)CCc2cc(F)ccc2[C@@H]1C(C)C
96.7

Request the reported drug-induced phospholipidosis associated with CN1Cc2ccccc2[C@@H]2c3cccc4[nH]cc(c34)C[C@H]21
28.4

====

# System: HepG2
# method.summary: cell viability relative to DMSO; higher = less toxic
# applied.conditions: 72 h; 10 nM
Where a name gives a salt, the structure may show the parent alone.
This section presents molecules with their documented cell viability values.
API: value field is a number in %; no unit string.

Quick one: cell viability for CCCNC(C)C(=O)Nc1c(C)csc1C(=O)OC (stereo unspecified) ?
105

# input molecule: CN(C)CCOC(c1ccccc1)c1ccccc1.Cn1c(=O)c2[nH]c(Cl)nc2n(C)c1=O [dimenhydrinate] ; wanted: its cell viability
103

Item Cc1ccc(NCCCc2ccccc2)c(N)c1 has what recorded cell viability?
97.1

Could you tell me which cell viability is on file for Cc1sc(C)c2c1CCC=C2c1c[nH]cn1 ?
108

For the molecule shown here, CN1Cc2ccccc2[C@@H]2c3cccc4[nH]cc(c34)C[C@H]21 , give the reported cell viability.
96.9

Using the record for C[C@H]1CNCCCN1S(=O)(=O)c1cccc2cncc(F)c12 , report its cell viability.
101

Find the recorded cell viability belonging to O=Cc1cn(Cc2ccc(Cl)cc2)c2ccccc12 and report it.
110

Which cell viability is reported for this molecule? NC(=O)CN1CC(c2ccccc2)CC1=O (stereo unspecified)
107

Sample CC(CNC1CCCCC1)OC(=O)c1ccccc1 (stereo unspecified) — what was its cell viability?
102

Which cell viability value belongs to N#CC(=C(/N)Sc1ccccc1N)/C(C#N)=C(/N)Sc1ccccc1N ?
95.9

Return reported cell viability; argument: COc1cc2c(cc1OC)[C@@H](Cc1cc(OC)c(OC)c(OC)c1)[N+](C)(CCCOC(=O)CC/C=C/CCC(=O)OCCC[N+]1(C)CCc3cc(OC)c(OC)cc3[C@H]1Cc1cc(OC)c(OC)c(OC)c1)CC2 (stereo partly specified)
95.2

Requested read-out: cell viability. Entry: N[C@@H](Cc1cc(I)c(Oc2ccc(O)c(I)c2)c(I)c1)C(=O)O
104

Reported cell viability for CCOC(=O)Nc1ccc(NCc2ccc(F)cc2)cc1N : what is it?
106

Bench note: what cell viability did CC[C@H]1OC(=O)C[C@@H](O)[C@H](C)[C@@H](O[C@@H]2O[C@H](C)[C@@H](O[C@H]3C[C@@](C)(O)[C@@H](O)[C@H](C)O3)[C@H](N(C)C)[C@H]2O)[C@@H](CC=O)C[C@@H](C)C(=O)/C=C/C(C)=C/[C@@H]1CO[C@@H]1O[C@H](C)[C@@H](O)[C@@H](OC)[C@H]1OC [TYLOSIN TARTRATE] show?
101

So what does the record say about cell viability for CC(C)(CCCCCC(O)CCCCCC(C)(C)C(=O)O)C(=O)O ?
98.2

// lookup cell viability for CNC(=O)c1ccc2c(c1)CCO[C@H]2CCN1CCN(c2ccc(C(N)=O)cc2)CC1
104
